Molecular target: Insulin-like growth factor 1 receptor (Homo sapiens) (UniProt P08069);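 further: values are mean percent inhibition of IGF1R kinase activity, from the GSK published kinase inhibitor set (PKIS) screening panel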
Sequence (P08069 31-736 limits assumed): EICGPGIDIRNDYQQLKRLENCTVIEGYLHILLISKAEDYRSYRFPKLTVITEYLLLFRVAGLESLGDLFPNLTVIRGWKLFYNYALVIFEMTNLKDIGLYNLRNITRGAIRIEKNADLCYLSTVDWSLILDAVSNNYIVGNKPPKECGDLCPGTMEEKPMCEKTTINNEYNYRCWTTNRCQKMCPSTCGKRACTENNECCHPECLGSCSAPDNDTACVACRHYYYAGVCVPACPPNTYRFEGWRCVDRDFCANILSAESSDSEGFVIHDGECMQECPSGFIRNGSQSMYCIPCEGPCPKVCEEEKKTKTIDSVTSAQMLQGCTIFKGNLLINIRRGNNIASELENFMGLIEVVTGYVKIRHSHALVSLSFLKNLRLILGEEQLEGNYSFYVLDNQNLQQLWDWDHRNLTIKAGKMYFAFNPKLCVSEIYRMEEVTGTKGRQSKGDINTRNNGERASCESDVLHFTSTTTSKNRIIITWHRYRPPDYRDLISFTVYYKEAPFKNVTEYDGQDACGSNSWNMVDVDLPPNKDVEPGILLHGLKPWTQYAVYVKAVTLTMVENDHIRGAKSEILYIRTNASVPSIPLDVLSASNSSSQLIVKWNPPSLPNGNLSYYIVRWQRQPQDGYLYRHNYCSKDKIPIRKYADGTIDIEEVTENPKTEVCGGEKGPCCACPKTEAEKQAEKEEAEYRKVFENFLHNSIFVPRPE
Sequence (P08069 741-1367 limits assumed): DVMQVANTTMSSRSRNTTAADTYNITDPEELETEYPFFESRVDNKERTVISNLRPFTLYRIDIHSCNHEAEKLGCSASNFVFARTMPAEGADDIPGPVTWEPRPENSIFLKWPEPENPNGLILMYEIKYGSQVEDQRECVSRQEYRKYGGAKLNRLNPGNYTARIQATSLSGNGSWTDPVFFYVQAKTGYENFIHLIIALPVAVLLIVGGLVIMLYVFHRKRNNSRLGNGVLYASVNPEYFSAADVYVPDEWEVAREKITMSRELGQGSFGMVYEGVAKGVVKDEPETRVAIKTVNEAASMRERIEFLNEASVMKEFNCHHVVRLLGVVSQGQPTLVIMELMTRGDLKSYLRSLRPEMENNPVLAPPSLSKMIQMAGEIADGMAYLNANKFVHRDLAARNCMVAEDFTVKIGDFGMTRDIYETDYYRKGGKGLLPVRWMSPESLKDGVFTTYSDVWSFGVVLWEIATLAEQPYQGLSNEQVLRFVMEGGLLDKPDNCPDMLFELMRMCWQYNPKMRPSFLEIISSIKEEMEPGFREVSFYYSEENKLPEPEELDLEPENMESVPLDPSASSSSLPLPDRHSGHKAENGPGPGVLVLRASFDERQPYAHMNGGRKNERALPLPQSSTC
Settings: at 0.1 µM
Kindly supply the reported inhibition values for the records listed here.
Phrase the answer as number then unit, nothing more needed.

Entry O=C1NC(=O)C(c2ccc(Cl)cc2)=C1Nc1ccc(Cl)c(C(=O)O)c1 : reported inhibition = ?
0.06%

Entry O=C(Nc1n[nH]c2nc(-c3ccco3)c(Br)cc12)C1CC1 : reported inhibition = ?
2.77%

Entry Fc1cccc(COc2ccc(Nc3ncnc4sc(-c5cccs5)cc34)cc2Cl)c1 : reported inhibition = ?
0.38%

Entry Cc1ccc(C(=O)NC2CCCCC2)cc1-c1ccc(C(=O)NCC2CC2)cc1 : reported inhibition = ?
1.73%

Entry O=C1Nc2ccc(C(=O)c3ccco3)cc2C1=Cc1cc(Cl)c(O)c(Cl)c1 : reported inhibition = ?
4.15%
